Provenance of the data: PubChem BioAssay (NCI)

System: UO-31 renal
Assay: NCI-60 one-dose screen, 48 h (100 = growth as untreated, 0 = no growth, -100 = all killed)
Details: 10 µM unless noted
The panel holds about 83,000 compounds, 20% with a hit somewhere; the sample as a whole holds those more often.

mol	growth (%)
C(=N\Nc1nc(N/N=C/c2ccc3c(c2)OCO3)nc(N2CCCCC2)n1)/c1ccc2c(c1)OCO2	74.4
CCCCSC1=C(Cl)CN(c2ccc(Cl)cc2)C1=O	91.1
CCCCOc1ccc(S(=O)(=O)N2CCN(c3nc(C)cc(N4CCOCC4)n3)CC2)cc1	17.4
CCN(CC)S(=O)(=O)c1ccc(-c2nc(C(Cl)Cl)nc3cc(-c4ccc(F)cc4)nn23)cc1	27.6
N#C/C(=N\Nc1ccc(F)cc1)C(=O)Nc1cc(-c2ccccc2)nn1-c1ccccc1	3.54
Cn1cc(C2=C(c3coc4cc(Br)ccc34)C(=O)NC2=O)c2ccccc21	52.5
CN(C)S(=O)(=O)c1ccc(-c2nc(C(Cl)Cl)nc3cc(-c4ccc(F)cc4)nn23)cc1	44.3
Cc1ccccc1NC(=O)Nc1nc2ccc([N+](=O)[O-])cc2s1	9.02
O=C(N/N=C\c1ccc([N+](=O)[O-])cc1)c1ccc2nc(-c3ccc(Br)cc3)[nH]c2c1	41.6

---

Tested on: A498 renal
Assay: NCI-60 one-dose screen, 48 h (100 = growth as untreated, 0 = no growth, -100 = all killed)
Details: 10 µM unless noted
The panel holds about 83,000 compounds, 20% with a hit somewhere; the sample as a whole holds those more often. Active and inactive are the calls of the source. How the source made its calls: active means growth percent below 10; inactive means the rest.
growth for assorted compounds

mol	growth
CC(=O)Nc1ccccc1-c1nc2ccccc2s1	84.4% (inactive)
CCn1c2ccc(/C=N/N(C)S(=O)(=O)CCN(C)C)cc2c2cc(/C=N/N(C)S(=O)(=O)CCN(C)C)ccc21	85.3% (inactive)
O=C(CSc1nnc(-c2ccc(Cl)cc2)n1-c1ccccc1)Nc1ccc(Cl)cc1	41.4% (inactive)
O=C1Nc2cc(Cl)ccc2/C1=C\c1ccc(OCc2ccccc2)cc1	93% (inactive)
Fc1cc(F)cc(NNC(=S)c2ccccc2)c1	14.4% (inactive)
O=C(CSc1nnc(-c2ccc(Cl)cc2)n1-c1ccccc1)Nc1ccccc1Cl	104% (inactive)
CN1CCN(Cc2ccc(NC(=O)c3cncc(C#Cc4cnc5ccc(O[C@@H]6CCOC6)nn45)c3)cc2C(F)(F)F)CC1	-94.7% (active)
CC(=O)OC[C@]12CC[C@@H](C(=O)/C=C/c3cccnc3)[C@@H]1[C@H]1CC[C@@H]3[C@@]4(C)CC[C@H](OC(C)=O)C(C)(C)[C@@H]4CC[C@@]3(C)[C@]1(C)CC2	-47.7% (active)
CC(C)=CCC[C@](C)(O)[C@H]1CC[C@]2(C)[C@@H]1CC[C@@H]1[C@@]3(C)CC[C@H](N)C(C)(C)[C@@H]3CC[C@]12C	106% (inactive)
CCCC[n+]1ccc(SCC(=O)n2ccc3ccccc32)c2ccccc21	111% (inactive)
CC1(C)CC[C@]23CC[C@]4(C)[C@H](CC[C@@H]5[C@@]6(C)CC[C@H](N)C(C)(C)[C@@H]6CC[C@]54C)[C@H]2[C@H]1OC3	108% (inactive)
C#CCOc1ccc(/C=N/Nc2nc(-c3ccc(OC)cc3)cs2)cc1	63% (inactive)
CCC(=C(c1ccc(OCCN(C)C)cc1)c1ccc(OCCN(C)C)cc1)c1ccc(Cl)cc1	-23.3% (active)
Cc1ccc2c(n1)C(=O)C(Cl)=C(Nc1cccc(C(=O)OC(C)(C)C)c1)C2=O	66.6% (inactive)
Cc1cc2nc3c4cc(C#N)ccc4n(CCN(C)C)c3nc2cc1C	-44% (active)
Brc1cc(-c2cc(-c3ccc4c(c3)OC=CO4)[nH]n2)cs1	87.1% (inactive)
CNC(=O)c1cc(Oc2ccc3c(c2)sc2nc(-c4ccc(N(C)C)cc4)cn23)ccn1	7.34% (active)
CCCCc1nc2c(N)nc3ccccc3c2n1Cc1cccc(CN)c1	16.3% (inactive)
CCOC(=O)c1cccc(NC2=C(Cl)C(=O)c3nc(C)ccc3C2=O)c1	88.8% (inactive)
